In this section we review reported self-splicing fitness (ln) values for a set of sequences.
Assay: self-splicing fitness, log relative to wild type (ln ratio); higher = more splicing; Tetrahymena group I intron in knt gene, E. coli kanamycin selection, DiMSum; sequences stand for … in CUCUCU…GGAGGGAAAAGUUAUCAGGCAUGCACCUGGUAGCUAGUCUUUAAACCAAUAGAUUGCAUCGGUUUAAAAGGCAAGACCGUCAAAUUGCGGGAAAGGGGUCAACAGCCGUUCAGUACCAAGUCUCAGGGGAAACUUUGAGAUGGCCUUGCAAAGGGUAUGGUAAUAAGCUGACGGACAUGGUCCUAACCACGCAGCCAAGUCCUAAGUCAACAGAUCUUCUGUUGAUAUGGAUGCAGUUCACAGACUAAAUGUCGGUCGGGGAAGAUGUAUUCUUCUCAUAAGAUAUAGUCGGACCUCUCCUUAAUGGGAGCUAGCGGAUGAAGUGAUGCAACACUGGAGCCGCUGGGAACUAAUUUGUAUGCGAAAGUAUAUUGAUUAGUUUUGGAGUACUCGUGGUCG;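 further: selection with 25 µg/mL kanamycin versus none on LB agar overnight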
Conditions: 30 °C
Note: the reply should be a number with no unit written.

self-splicing fitness (ln) reading for CCUUAGCAAUAUUACGAGAA : -2.19

self-splicing fitness (ln) reading for UUACAGCAAUAUUACGAUAC : -3.01

self-splicing fitness (ln) reading for UCGUAGCAAUAUUACGAGGU : -3.27

self-splicing fitness (ln) reading for AUCUAGCAAUAUUACGAGGG : -2.92

self-splicing fitness (ln) reading for AAGGAGCAAUAUUACGUGGC : -3.79

self-splicing fitness (ln) reading for AGCAAGCAAUAUUACGUAGG : -2.75

self-splicing fitness (ln) reading for AGUAAGCAAUAUUACGCCAU : -2.81

self-splicing fitness (ln) reading for AUCAAGCAAUAUUACGUAGU : -2.22

self-splicing fitness (ln) reading for GAAGAGCAAUAUUACGGUCU : -2.52

self-splicing fitness (ln) reading for UAGGAGCAAUAUUACGGGAU : -3.21

self-splicing fitness (ln) reading for CCUUAGCAAUAUUACGGGCC : -2.94

self-splicing fitness (ln) reading for CGGCAGCAAUAUUACGUAGC : -4.16

self-splicing fitness (ln) reading for GCCAAGCAAUAUUACGAAUU : -3.39

self-splicing fitness (ln) reading for GAGGAGCAAUAUUACGCAGU : -2.89

self-splicing fitness (ln) reading for ACCGAGCAAUAUUACGAUUA : -2.31

self-splicing fitness (ln) reading for GGUAAGCAAUAUUACGGAUC : 0.0183

self-splicing fitness (ln) reading for AGCCAGCAAUAUUACGUUUU : -3.78

self-splicing fitness (ln) reading for CUCUAGCAAUAUUACGCCAA : -2.35

self-splicing fitness (ln) reading for AGGAAGCAAUAUUACGGGUU : -3.14

self-splicing fitness (ln) reading for CUAAAGCAAUAUUACGGCGA : -3.59

self-splicing fitness (ln) reading for CACCAGCAAUAUUACGAUAU : -3.22

self-splicing fitness (ln) reading for UUUCAGCAAUAUUACGCGGA : -2.2

----------
Assay: self-splicing fitness, log relative to wild type (ln ratio); higher = more splicing; Tetrahymena group I intron in knt gene, E. coli kanamycin selection, DiMSum; sequences stand for … in CUCUCU…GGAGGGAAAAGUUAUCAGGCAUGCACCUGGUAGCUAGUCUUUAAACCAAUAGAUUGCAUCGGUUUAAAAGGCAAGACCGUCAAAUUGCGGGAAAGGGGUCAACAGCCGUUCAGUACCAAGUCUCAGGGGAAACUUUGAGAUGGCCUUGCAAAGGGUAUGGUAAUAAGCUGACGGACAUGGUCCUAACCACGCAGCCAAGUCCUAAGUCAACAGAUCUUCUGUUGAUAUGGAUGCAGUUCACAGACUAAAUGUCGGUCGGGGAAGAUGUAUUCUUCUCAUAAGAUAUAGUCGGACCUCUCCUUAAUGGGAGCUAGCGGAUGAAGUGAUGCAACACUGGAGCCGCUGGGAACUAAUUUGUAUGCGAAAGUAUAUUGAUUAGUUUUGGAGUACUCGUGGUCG
Conditions: 30 °C
property-label: self-splicing fitness (ln)
Note: the reply should be a number with no unit written.

- item-sequence: "CCUUAGCAAUAUUACGCCAU"
  self-splicing fitness (ln): -2.87
- item-sequence: "ACGCAGCAAUAUUACGUAGG"
  self-splicing fitness (ln): -2.12
- item-sequence: "GAAAAGCAAUAUUACGGAGC"
  self-splicing fitness (ln): -2.46
- item-sequence: "GCGGAGCAAUAUUACGUUUU"
  self-splicing fitness (ln): -3.29
- item-sequence: "CUUUAGCAAUAUUACGCAUG"
  self-splicing fitness (ln): -1.2
- item-sequence: "UGUUAGCAAUAUUACGUAAU"
  self-splicing fitness (ln): -2.96
- item-sequence: "GUGCAGCAAUAUUACGAGAC"
  self-splicing fitness (ln): -2.12
- item-sequence: "UAACAGCAAUAUUACGCCUA"
  self-splicing fitness (ln): -0.308
- item-sequence: "ACUCAGCAAUAUUACGCAAG"
  self-splicing fitness (ln): -1.89
- item-sequence: "UUUCAGCAAUAUUACGCCCG"
  self-splicing fitness (ln): -0.734

self-splicing fitness (ln) reading for CAUCAGCAAUAUUACGAACG : 0.463

self-splicing fitness (ln) reading for GAUUAGCAAUAUUACGGGGC : -3.62

----------
Assay: self-splicing fitness, log relative to wild type (ln ratio); higher = more splicing; Tetrahymena group I intron in knt gene, E. coli kanamycin selection, DiMSum; sequences stand for … in CUCUCU…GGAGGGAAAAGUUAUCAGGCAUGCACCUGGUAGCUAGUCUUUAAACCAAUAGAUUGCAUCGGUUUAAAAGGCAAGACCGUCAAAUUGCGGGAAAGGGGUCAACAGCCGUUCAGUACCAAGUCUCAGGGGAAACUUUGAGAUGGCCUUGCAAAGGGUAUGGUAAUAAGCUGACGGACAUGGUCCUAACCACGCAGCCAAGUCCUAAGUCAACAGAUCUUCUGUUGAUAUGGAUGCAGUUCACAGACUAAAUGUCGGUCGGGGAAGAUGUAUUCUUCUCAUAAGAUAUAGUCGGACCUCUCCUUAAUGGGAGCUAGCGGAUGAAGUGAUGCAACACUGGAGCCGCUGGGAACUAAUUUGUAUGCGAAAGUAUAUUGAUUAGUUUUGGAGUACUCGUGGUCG
Details: 37 °C
Kindly note that classification relies on self-splicing fitness (ln) with these boundaries: LOW = under -2, MEDIUM = from -2 up to -0.9, HIGH = -0.9 and over

Would you please look over these solved cases?
- item-sequence: "AUAUAGCAAUAUUACGUGUU"
  classification: "MEDIUM"
- item-sequence: "CGGCAGCAAUAUUACGUAGC"
  classification: "LOW"
- item-sequence: "AAGAAGCAAUAUUACGAAAC"
  classification: "HIGH"

### Prompt # bin lookup: classify AUGUAGCAAUAUUACGGACA by its self-splicing fitness (ln)
### Response HIGH

### Prompt # bin lookup: classify UGAGAGCAAUAUUACGGUAA by its self-splicing fitness (ln)
### Response LOW

### Prompt # bin lookup: classify CACCAGCAAUAUUACGCUGA by its self-splicing fitness (ln)
### Response LOW

### Prompt # bin lookup: classify CCGGAGCAAUAUUACGAGCG by its self-splicing fitness (ln)
### Response HIGH

### Prompt # bin lookup: classify ACGCAGCAAUAUUACGUGGG by its self-splicing fitness (ln)
### Response LOW

### Prompt # bin lookup: classify CGGGAGCAAUAUUACGUUGU by its self-splicing fitness (ln)
### Response LOW

### Prompt # bin lookup: classify GGCGAGCAAUAUUACGGACC by its self-splicing fitness (ln)
### Response HIGH

### Prompt # bin lookup: classify ACAAAGCAAUAUUACGUUGA by its self-splicing fitness (ln)
### Response MEDIUM

### Prompt # bin lookup: classify ACCUAGCAAUAUUACGACUU by its self-splicing fitness (ln)
### Response HIGH

### Prompt # bin lookup: classify AACUAGCAAUAUUACGGAAC by its self-splicing fitness (ln)
### Response LOW

### Prompt # bin lookup: classify CUCAAGCAAUAUUACGUGUG by its self-splicing fitness (ln)
### Response MEDIUM

### Prompt # bin lookup: classify AGCUAGCAAUAUUACGAAGU by its self-splicing fitness (ln)
### Response MEDIUM

### Prompt # bin lookup: classify UGCAAGCAAUAUUACGUCCG by its self-splicing fitness (ln)
### Response HIGH

----------
Test: self-splicing fitness, log relative to wild type (ln ratio); higher = more splicing; Tetrahymena group I intron in knt gene, E. coli kanamycin selection, DiMSum; sequences stand for … in CUCUCU…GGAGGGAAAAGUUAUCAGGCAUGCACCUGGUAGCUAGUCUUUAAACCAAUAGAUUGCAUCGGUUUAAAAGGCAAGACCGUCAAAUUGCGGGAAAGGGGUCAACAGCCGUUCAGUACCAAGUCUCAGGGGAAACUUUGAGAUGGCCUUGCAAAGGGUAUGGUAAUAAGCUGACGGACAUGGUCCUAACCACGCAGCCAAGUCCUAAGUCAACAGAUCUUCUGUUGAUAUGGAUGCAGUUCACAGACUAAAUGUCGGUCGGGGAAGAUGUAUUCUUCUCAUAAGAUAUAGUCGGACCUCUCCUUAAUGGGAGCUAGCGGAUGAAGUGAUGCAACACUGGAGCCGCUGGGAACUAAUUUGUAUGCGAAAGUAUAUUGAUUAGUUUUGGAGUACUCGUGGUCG
Conditions: 30 °C
In this section we review reported self-splicing fitness (ln) values for a set of sequences.

Solved cases (5 shown):
- item-sequence: "CGCCAGCAAUAUUACGAGGG"
  self-splicing fitness (ln): -3.28
- item-sequence: "CUCUAGCAAUAUUACGACUG"
  self-splicing fitness (ln): -1.68
- item-sequence: "UGCUAGCAAUAUUACGUGUG"
  self-splicing fitness (ln): -1.63
- item-sequence: "ACACAGCAAUAUUACGAUUU"
  self-splicing fitness (ln): -0.589
- item-sequence: "CAGUAGCAAUAUUACGUCAA"
  self-splicing fitness (ln): -2.64

self-splicing fitness (ln) reading for ACCAAGCAAUAUUACGCGAA : -3.09

self-splicing fitness (ln) reading for GUAGAGCAAUAUUACGGGUU : -4.13

self-splicing fitness (ln) reading for CACAAGCAAUAUUACGCUUC : -3.67

self-splicing fitness (ln) reading for GCACAGCAAUAUUACGAGAG : -2.96

self-splicing fitness (ln) reading for CUACAGCAAUAUUACGAAAA : -2.2

self-splicing fitness (ln) reading for AAGCAGCAAUAUUACGACUC : -0.122

self-splicing fitness (ln) reading for CUCCAGCAAUAUUACGUGAG : -3.61

self-splicing fitness (ln) reading for UAAGAGCAAUAUUACGAUAC : -3.55
